Hello, the source for this data is paper PMC2615555, in case you need it.

Target: I-E^d (Mus musculus, UniProt P01904+P01915)
Sequence (P01904 26-255): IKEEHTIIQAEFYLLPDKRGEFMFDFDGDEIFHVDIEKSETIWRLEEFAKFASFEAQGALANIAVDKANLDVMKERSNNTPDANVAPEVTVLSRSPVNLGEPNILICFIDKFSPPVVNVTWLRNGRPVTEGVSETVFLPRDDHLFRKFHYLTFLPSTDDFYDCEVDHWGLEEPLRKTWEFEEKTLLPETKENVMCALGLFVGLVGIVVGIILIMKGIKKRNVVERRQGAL
Sequence (P01915 27-264 limits assumed): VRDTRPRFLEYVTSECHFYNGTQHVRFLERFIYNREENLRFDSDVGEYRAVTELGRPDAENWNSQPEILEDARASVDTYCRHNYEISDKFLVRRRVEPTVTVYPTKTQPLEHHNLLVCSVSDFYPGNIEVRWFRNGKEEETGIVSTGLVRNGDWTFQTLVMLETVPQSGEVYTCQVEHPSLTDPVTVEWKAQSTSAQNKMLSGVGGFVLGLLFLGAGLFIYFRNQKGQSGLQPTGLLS
Assay: biochemical
pIC50: −log10 of the molar value.
For each entry below, report its pIC50 value.

Compound	Observed
CC[C@H](C)[C@H](NC(=O)[C@@H](NC(=O)[C@@H](N)C(C)C)C(C)C)C(=O)N[C@@H](C)C(=O)N[C@@H](CC(C)C)C(=O)N[C@@H](CC(C)C)C(=O)N[C@H](C(=O)N[C@@H](CC(C)C)C(=O)N[C@@H](C)C(=O)N[C@H](C(=O)NCC(=O)N1CCC[C@H]1C(=O)N[C@@H](C)C(=O)N[C@@H](Cc1ccc(O)cc1)C(=O)N[C@@H](CO)C(=O)O)C(C)C)C(C)C [M61–75]	< 4.35

Check the records and state pIC50 for CSCC[C@H](NC(=O)[C@H](Cc1c[nH]c2ccccc12)NC(=O)[C@H](CCCCN)NC(=O)[C@H](CCC(=O)O)NC(=O)[C@H](CCC(N)=O)NC(=O)[C@H](CCCNC(=N)N)NC(=O)[C@@H](NC(=O)[C@H](CCCCN)NC(=O)[C@H](CC(C)C)NC(=O)CNC(=O)[C@H](Cc1c[nH]cn1)NC(=O)[C@@H](N)CC(N)=O)[C@@H](C)O)C(=O)N[C@H](C(=O)NCC(=O)N[C@@H](CCCNC(=N)N)C(=O)O)[C@@H](C)O [M9–23]
< 4.35

###

Molecular target: I-A^d (Mus musculus, UniProt P01921+P04228)
Sequence (P04228 24-256): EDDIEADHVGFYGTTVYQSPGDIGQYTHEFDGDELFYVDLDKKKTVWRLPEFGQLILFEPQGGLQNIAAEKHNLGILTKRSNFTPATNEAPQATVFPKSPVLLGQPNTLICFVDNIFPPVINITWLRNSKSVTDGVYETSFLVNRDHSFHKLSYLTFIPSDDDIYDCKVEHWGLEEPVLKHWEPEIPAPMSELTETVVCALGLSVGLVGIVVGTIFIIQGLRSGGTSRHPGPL
Sequence (P01921 28-265): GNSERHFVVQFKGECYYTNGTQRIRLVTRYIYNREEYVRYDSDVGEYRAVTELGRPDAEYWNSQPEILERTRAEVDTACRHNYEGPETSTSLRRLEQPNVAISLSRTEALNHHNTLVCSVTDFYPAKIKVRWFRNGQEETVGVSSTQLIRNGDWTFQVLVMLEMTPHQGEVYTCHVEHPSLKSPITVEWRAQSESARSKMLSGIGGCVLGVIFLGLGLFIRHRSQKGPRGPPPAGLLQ
Experiment: biochemical
Format: binding, BALB/c mouse
Conditions: Binding Assay IC50, I-A^d (membrane 15mers)
Parameter: pIC50
Answers are plain numbers, as −log10 of the molar value.

Input Smiles	pIC50
CC[C@H](C)[C@H](NC(=O)[C@@H](NC(=O)[C@H](CC(C)C)NC(=O)[C@H](C)NC(=O)[C@@H](N)[C@@H](C)O)[C@@H](C)O)C(=O)N[C@@H](C)C(=O)N[C@@H](Cc1ccc(O)cc1)C(=O)N[C@@H](CC(C)C)C(=O)N[C@H](C(=O)NCC(=O)N[C@@H](CO)C(=O)N[C@@H](CC(N)=O)C(=O)N[C@@H](CCSC)C(=O)N[C@H](C(=O)N[C@@H](CCC(N)=O)C(=O)O)[C@@H](C)O)C(C)C	6.99

State the measured pIC50 (I-A^d (Mus musculus, UniProt P01921+P04228)) of `CC[C@H](C)[C@H](NC(=O)[C@@H](NC(=O)[C@@H](NC(=O)[C@H](CCCNC(=N)N)NC(=O)[C@H](CCC(N)=O)NC(=O)[C@@H](NC(=O)[C@@H](N)CCSC)[C@@H](C)O)C(C)C)C(C)C)C(=O)N[C@@H](C)C(=O)N[C@@H](CC(C)C)C(=O)N[C@@H](CC(C)C)C(=O)N[C@H](C(=O)N[C@@H](CC(C)C)C(=O)N[C@@H](C)C(=O)N[C@H](C(=O)NCC(=O)O)C(C)C)C(C)C`
5.19

###

Biological target: UniProt P01902
Sequence (P01902 22-368): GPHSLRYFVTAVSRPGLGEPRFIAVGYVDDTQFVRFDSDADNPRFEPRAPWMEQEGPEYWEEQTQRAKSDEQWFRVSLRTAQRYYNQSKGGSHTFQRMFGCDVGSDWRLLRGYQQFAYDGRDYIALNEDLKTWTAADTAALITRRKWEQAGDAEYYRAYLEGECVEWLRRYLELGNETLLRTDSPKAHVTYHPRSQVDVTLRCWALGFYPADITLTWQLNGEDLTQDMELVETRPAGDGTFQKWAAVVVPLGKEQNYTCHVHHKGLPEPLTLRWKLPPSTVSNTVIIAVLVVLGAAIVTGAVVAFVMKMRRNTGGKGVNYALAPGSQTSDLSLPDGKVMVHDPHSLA
Sequence (P61769 21-119 partner): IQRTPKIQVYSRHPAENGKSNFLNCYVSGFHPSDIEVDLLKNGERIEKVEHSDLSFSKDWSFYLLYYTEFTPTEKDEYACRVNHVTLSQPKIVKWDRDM
Peptide text beside a SMILES is read from it.
For each entry below, report its pIC50 value.
Give bare numbers, as −log10 of the molar value.

Compound	Parameter	Observed
CC[C@H](C)[C@H](N)C(=O)N1CCC[C@H]1C(=O)N[C@H](C(=O)N[C@H](C(=O)N[C@H](C(=O)N[C@@H](C)C(=O)N[C@@H](CC(=O)O)C(=O)N[C@@H](CC(=O)O)C(=O)N[C@@H](CC(C)C)C(=O)O)C(C)C)[C@@H](C)CC)C(C)C [E332–340] (H-IPVIVADDL-OH)	pIC50	4.48

Parameter requested: pIC50. Apply to each item below.
1. CC[C@H](C)[C@H](NC(=O)[C@@H](NC(=O)[C@@H]1CCCN1C(=O)[C@@H](NC(=O)[C@H](CCCNC(=N)N)NC(=O)[C@@H](N)CS)[C@@H](C)CC)C(C)C)C(=O)N[C@H](C(=O)N[C@@H](C)C(=O)N[C@@H](CC(=O)O)C(=O)O)C(C)C [E330–338] (H-CRIPVIVAD-OH)
2. CC(C)C[C@H](NC(=O)[C@@H](NC(=O)[C@H](C)NC(=O)[C@H](CC(N)=O)NC(=O)[C@H](Cc1ccc(O)cc1)NC(=O)[C@@H](N)CS)C(C)C)C(=O)N[C@H](C(=O)N[C@@H](Cc1c[nH]cn1)C(=O)N[C@H](C(=O)O)C(C)C)[C@@H](C)O [E60–68] (H-CYNAVLTHV-OH)
3. CC(C)C[C@H](NC(=O)[C@@H](NC(=O)[C@H](C)NC(=O)[C@H](CC(N)=O)NC(=O)[C@H](Cc1ccc(O)cc1)NC(=O)[C@H](CS)NC(=O)[C@@H](N)C(C)C)C(C)C)C(=O)N[C@H](C(=O)N[C@@H](Cc1c[nH]cn1)C(=O)O)[C@@H](C)O [E59–67] (H-VCYNAVLTH-OH)
4. CC[C@H](C)[C@H](NC(=O)[C@H](CCCCN)NC(=O)[C@@H](NC(=O)[C@H](Cc1c[nH]cn1)NC(=O)[C@@H](NC(=O)[C@H](CC(C)C)NC(=O)[C@@H](NC(=O)[C@H](C)N)C(C)C)[C@@H](C)O)C(C)C)C(=O)N[C@@H](CC(N)=O)C(=O)O [E63–71] (H-AVLTHVKIN-OH)

6.04
9.00
6.68
4.26

Parameter requested: pIC50. Apply to each item below.
1. CC[C@H](C)[C@H](NC(=O)[C@H](CCCCN)NC(=O)[C@@H](NC(=O)[C@H](Cc1c[nH]cn1)NC(=O)[C@@H](NC(=O)[C@H](CC(C)C)NC(=O)[C@@H](NC(=O)[C@H](C)NC(=O)[C@@H](N)CC(N)=O)C(C)C)[C@@H](C)O)C(C)C)C(=O)O [E62–70] (H-NAVLTHVKI-OH)
2. CC(C)C[C@H](NC(=O)[C@@H](NC(=O)[C@H](C)NC(=O)[C@H](CC(N)=O)NC(=O)[C@@H](N)Cc1ccc(O)cc1)C(C)C)C(=O)N[C@H](C(=O)N[C@@H](Cc1c[nH]cn1)C(=O)N[C@H](C(=O)N[C@@H](CCCCN)C(=O)O)C(C)C)[C@@H](C)O [E61–69] (H-YNAVLTHVK-OH)

[5.81, 7.03]
